System: MM2 (metastatic mammary tumor cancer cells)
Test: Anti-proliferation activity against MM2 cells (MTS/PMS)
Assay type: cell-based
Settings: Table 13, various sugars on 8-methyl coumarin; 72 hours
Quantity: pIC50
pIC50 field: float, defined as -log10 of concentration (mol/L).

For the molecule shown here, CO[C@@H]1[C@@H](O)[C@@H](O)[C@H](Oc2ccc3cc(NC(=O)c4cccc(N)c4)c(=O)oc3c2C)OC1(C)C [compound 19] , give the reported pIC50.
4.51

---

System: PC-3 (androgen independent prostate cancer cells)
Assay: Anti-proliferation activity against PC-3 cells
Format: cell-based
Settings: Homo sapiens, PC-3; Table 2; n = 3; read-out: IC50 PC-3
Description: Upon completion of synthesis of library of compounds in Examples 23 and 24, the compounds were evaluated for anti-proliferative activity against SkBr3 (Her2 overexpressing breast cancer cells), MCF-7 (estrogen receptor positive breast cancer cells), HCT-116 (colon cancer cells characterized by wild-type p53), PL45 (pancreatic cancer cells), LNCaP (androgen sensitive prostate cancer cells) and PC-3 (androgen independent prostate cancer cells) cell lines. […]
For each entry below, report its IC50 value.
Dear colleague, please return just the value in µM, with no unit written.

For the compound shown here, CO[C@@H]1[C@@H](O)[C@@H](O)[C@H](Oc2ccc3cc(NC(=O)c4cccc(N)c4)c(=O)oc3c2C)OC1(C)C , give the reported IC50.
14.7

What would you report for CO[C@@H]1[C@@H](O)[C@@H](O)[C@H](Oc2ccc3cc(NC(=O)c4ccccc4N)c(=O)oc3c2C)OC1(C)C ?
57.9

What would you report for COc1ccccc1C(=O)Nc1cc2ccc(O[C@@H]3OC(C)(C)[C@H](OC)[C@@H](O)[C@H]3O)c(C)c2oc1=O ?
9.1

What would you report for CO[C@@H]1[C@@H](O)[C@@H](O)[C@H](Oc2ccc3cc(NC(=O)c4ccccc4)c(=O)oc3c2C)OC1(C)C ?
67.6

What would you report for CO[C@@H]1[C@@H](O)[C@@H](O)[C@H](Oc2ccc3cc(NC(=O)c4ccc(N)cc4)c(=O)oc3c2C)OC1(C)C ?
65.2

What would you report for CO[C@@H]1[C@@H](O)[C@@H](O)[C@H](Oc2ccc3cc(NC(=O)c4ccc(-c5ccccc5)cc4)c(=O)oc3c2C)OC1(C)C ?
19.3

---

Tested on: PC-3 (androgen independent prostate cancer cells)
Test: Anti-proliferation activity against PC-3 cells
Assay type: cell-based
Settings: Homo sapiens, PC-3; Table 2; n = 3; read-out: IC50 PC-3
For each entry below, report its IC50 value.
Dear colleague, please return just the value in µM, with no unit written.

For the compound shown here, COc1ccc(C(=O)Nc2cc3ccc(O[C@@H]4OC(C)(C)[C@H](OC)[C@@H](O)[C@H]4O)c(C)c3oc2=O)cc1 , give the reported IC50.
17.1

What would you report for CO[C@@H]1[C@@H](O)[C@@H](O)[C@H](Oc2ccc3cc(NC(=O)c4cccc(-c5ccccc5)c4)c(=O)oc3c2C)OC1(C)C ?
11.6

What would you report for CO[C@@H]1[C@@H](O)[C@@H](O)[C@H](Oc2ccc3cc(NC(=O)c4ccccc4-c4ccccc4)c(=O)oc3c2C)OC1(C)C ?
65.3

---

System: MCF-7 (estrogen receptor positive breast cancer cells)
Test: Anti-proliferation activity against MCF-7 cells (MTS/PMS)
Type: cell-based
Conditions: Homo sapiens, MCF7; Table 19, 7-oxyalkylamino and 7-oxypiperidinyl analogues; read-out: IC50, MCF-7
Method: Upon completion of synthesis of library of compounds in Examples 23 and 24, the compounds were evaluated for anti-proliferative activity against SkBr3 (Her2 overexpressing breast cancer cells), MCF-7 (estrogen receptor positive breast cancer cells), HCT-116 (colon cancer cells characterized by wild-type p53), PL45 (pancreatic cancer cells), LNCaP (androgen sensitive prostate cancer cells) and PC-3 (androgen independent prostate cancer cells) cell lines. […]
For each entry below, report its IC50 value.
Dear colleague, please return just the value in nM, with no unit written.

For the compound shown here, CC(C)=CCc1cc(C(=O)Nc2cc3ccc(OC4CCN(C)CC4)c(C)c3oc2=O)ccc1OCCN(C)C , give the reported IC50.
23

What would you report for COc1c(OC2CCN(C)CC2)ccc2cc(NC(=O)c3ccc(OCCN(C)C)c(CC=C(C)C)c3)c(=O)oc12 ?
90

What would you report for CC(C)=CCc1cc(C(=O)Nc2cc3ccc(OC4CCN(C)CC4)c(C)c3oc2=O)ccc1OC1CCN(C)CC1 ?
150

What would you report for CC(C)=CCc1cc(C(=O)Nc2cc3ccc(OC4CCCN(C)C4)c(C)c3oc2=O)ccc1O (stereo not shown) [31c, KU-418] ?
4690

What would you report for CC(C)=CCc1cc(C(=O)Nc2cc3ccc(OCCN(C)C)c(C)c3oc2=O)ccc1O [31e, KU-422] ?
9450

What would you report for CC(C)=CCc1cc(C(=O)Nc2cc3ccc(OCCCN(C)C)c(C)c3oc2=O)ccc1O [31f, KU-407] ?
440

What would you report for CC(C)=CCc1cc(C(=O)Nc2cc3ccc(OC4CCNCC4)c(C)c3oc2=O)ccc1O [31b, KU-416] ?
470

What would you report for CC(C)=CCc1cc(C(=O)Nc2cc3ccc(OC4CCN(C)CC4)c(C)c3oc2=O)ccc1OCCCN(C)C ?
90

What would you report for CC(C)=CCc1cc(C(=O)Nc2cc3ccc(OC4CCCNC4)c(C)c3oc2=O)ccc1O (stereo not shown) [31d, KU-420] ?
790

What would you report for CNCCOc1ccc2cc(NC(=O)c3ccc(O)c(CC=C(C)C)c3)c(=O)oc2c1C [31g, KU-424] ?
750
